measurement.target: T1, BSA-conjugated Aβ heptapeptide FFAEDVC (C-terminal Cys coupled to NSMP-activated BSA);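 note: ELISA binding of human antibody (10 or 2 µg/ml) to plate-coated BSA–peptide conjugates, detected with HRP anti-human Ig and TMB colour, mock-treated BSA as negative control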
T1 construct: also called Peptide 19-24
T1 peptide: FFAEDVC
run.description: ELISA
measure.name: Peptide-ratio 19-24/2-7
API note: the answer field is a bare number with no unit suffix.

INSERT INTO results (binder, result_number) VALUES
  ('MS-R #7.9.H7 IgG1 (antibody, V domains shown, full-length human IgG1; also called MAB 31; MS-Roche IgG #7.9.H7) VH: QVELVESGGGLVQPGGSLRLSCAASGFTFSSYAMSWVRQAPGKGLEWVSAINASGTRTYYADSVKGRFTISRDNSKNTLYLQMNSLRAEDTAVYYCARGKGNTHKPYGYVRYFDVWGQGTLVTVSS VL: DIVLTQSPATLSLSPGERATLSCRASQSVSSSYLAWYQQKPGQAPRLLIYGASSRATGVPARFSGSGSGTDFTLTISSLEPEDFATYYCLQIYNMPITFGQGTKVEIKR', 0.33);

// query Any idea what its Peptide-ratio 19-24/2-7 is? The binder is MS-R IgG1 3.6.H5 × 3.6.L2 (antibody, V domains shown, full-length human IgG1; VH entry starts at QLVESGG) VH: ELVESGGGLVQPGGSLRLSCAASGFTFSSYAMSWVRQAPGKGLEWVSAISESGKTKYYADSVKGRFTISRDNSKNTLYLQMNSLRAEDTAVYYCARLTHYARYYRYFDVWGQGTLVTVSS VL: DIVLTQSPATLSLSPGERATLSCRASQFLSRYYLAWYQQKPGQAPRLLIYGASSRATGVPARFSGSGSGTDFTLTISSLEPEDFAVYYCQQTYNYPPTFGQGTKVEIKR
// result 0.73
